experiment: qHTS assay to identify small molecule antagonists of the estrogen related receptor (ERR) signaling pathway from Tox21 library (AID 1224848); conditions: ERR reporter cell line, luciferase antagonist mode, 18 h; series mostly up to 92.4 µM; also: nearly all actives have a fitted effect of over 50% in size; also: potency is read from the fitted curve at half-maximal effect
Results filed as inconclusive are left out. Calls of active or inactive are those of the source. Calls follow the shape of the dose curve; as a rule, active = well fitted inhibition curve with a large enough effect in the repeat runs; inconclusive = weak or mixed curves; inactive = no such curve, though single readings can be large or run the other way.
attribute.measured: Potency

Previously resolved entries follow.
compound=Cc1c[nH]c(=O)[nH]c1=O assay_result=inactive
compound="S=C1NC=NC2N=CNC12 (configuration not stated)" assay_result="19.3 µM (active)"
compound=C/C=C/C(=O)C1=C(C)C=CCC1(C)C assay_result=inactive
compound=CN1CC[C@H](c2c(O)cc(O)c3c(=O)cc(-c4ccccc4Cl)oc23)[C@H](O)C1 assay_result=inactive

I am curious: what Potency value has been reported for "CCCOC(=O)c1ccc(O)cc1" ?
inactive

// next record "O=[N+]([O-])c1ccc(O)c2ncccc12"
5.31 µM (active)

Follow-up item: "CN1CCN(CCCN2c3ccccc3Sc3ccc(C(F)(F)F)cc32)CC1"
33.5 µM (active)

----------
experiment: qHTS assay to identify small molecule antagonists of the estrogen related receptor (ERR) signaling pathway - cell viability counter screen (AID 1224818); settings: ERR reporter cell line viability counter screen; series mostly up to 46.1 µM;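 also: viability measured after 17.5 h of compound exposure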
Records with an inconclusive call do not appear. Calls of active or inactive are those of the source. Calls come from the whole dose curve; as a rule, active = well fitted cell-killing curve with a large enough effect in the repeat runs; inconclusive = weak or mixed curves; inactive = flat fitted curve, though single readings scatter.
Assign a class; possible classes are active, inactive

compound=N[C@@H](Cn1ccc(=O)c(O)c1)C(=O)O label_value=inactive
compound="CC1C(=O)N(C)C(=O)c2nc[nH]c21 (stereo not given)" label_value=inactive
compound=CC1(C)CCC2=C(O1)c1ccccc1C(=O)C2=O label_value=active

Recorded test outcome, item Nc1nc2c(nc(Br)n2C2OC3COP(=O)(O)O[C@@H]3C2O)c(=O)[nH]1 (stereo not given in full)
inactive

Here is the next compound: "CCn1c(=O)[nH]c2cc(Cl)c(Cl)cc21"
inactive

Another compound to look at: "NCCCS(=O)(=O)O"
inactive

Now this one: "NCCNS(=O)(=O)c1cccc2c(Cl)cccc12"
inactive

Okay, and "N[C@H](C(=O)O)[C@H](Cc1ccccc1)C(=O)O" ?
inactive

"CCCn1c(=O)c2c(ncn2C)n(CCC)c1=O" ?
inactive

Follow-up entry: "CCCCCCCCCCC/C=C\C(C)(C)/C=C\CCCC(=O)O"
inactive

Follow-up item: "N=c1c[n+](N2CCOCC2)[n-]o1"
inactive

Do the same for NC1CCN(O)C1=O (stereo not given) please
inactive

Check "NC(N)=NC(N)=Nc1cccc(Cl)c1" too.
inactive

Please give the result for "COc1ccccc1N1CCN(CCN(C(=O)c2ccc(F)cc2)c2ccccn2)CC1" too.
inactive

Continue with O[Si](CCCN1CCCCC1)(c1ccc(F)cc1)C1CCCCC1 (stereo not given)
inactive

----------
experiment: qHTS assay for identifying genotoxic compounds that show differential cytotoxicity against isogenic chicken DT40 cell lines with known DNA damage response pathways - Rev3 mutant cell line (AID 743014); conditions: chicken DT40 Rev3-/- viability, CellTiter-Glo, 40 h; series mostly up to 68.4 µM; also: nearly all actives have a fitted effect of over 55% in size
Results filed as inconclusive are left out. Activity calls are given as the source filed them. Calls come from the whole dose curve; as a rule, active = well fitted cell-killing curve with a large enough effect in the repeat runs; inconclusive = weak or mixed curves, or effect the other way; inactive = no such curve, though single readings can be large or run the other way.
Outcome (select one): active, inactive

Record excerpt, results attached:
compound=CN1[C@@H](CC(=O)c2ccccc2)CCC[C@H]1C[C@H](O)c1ccccc1 label_value=inactive
compound=COc1ccc(/C=N/NC(=O)c2ccncc2)c(C(=O)O)c1OC label_value=inactive

Tell me the recorded outcome of this test for "COc1ccc([C@@H]2CC(=O)c3c(O)cc(O[C@@H]4O[C@H](CO[C@@H]5O[C@@H](C)[C@H](O)[C@@H](O)[C@H]5O)[C@@H](O)[C@H](O)[C@H]4O)cc3O2)cc1O" .
inactive

Item: CN[C@H](CC(C)C)C(=O)N[C@H]1C(=O)N[C@@H](CC(N)=O)C(=O)N[C@H]2C(=O)N[C@H]3C(=O)N[C@H](C(=O)N[C@@H](C(=O)O)c4cc(O)cc(O)c4-c4cc3ccc4O)[C@H](O)c3ccc(c(Cl)c3)Oc3cc2cc(c3O[C@@H]2O[C@H](CO)[C@@H](O)[C@H](O)[C@H]2O[C@H]2C[C@](C)(N)C(O)[C@H](C)O2)Oc2ccc(cc2Cl)[C@H]1O (stereo not given in full)
inactive

And what about the compound "CC(C)=CCC/C(C)=C/CC/C(C)=C/CC/C=C(\C)CC/C=C(\C)CCC=C(C)C" ?
inactive

Could you do the same for "Cc1cc(C(=O)NCCc2ccc(S(=O)(=O)NC(=O)NN3CCCCCC3)cc2)no1" , please?
inactive

Again, but for "NC[C@H]1O[C@H](O[C@H]2[C@H](O)[C@@H](O[C@H]3O[C@H](CO)[C@@H](O)[C@H](N)[C@H]3O)[C@H](N)C[C@@H]2N)[C@H](N)C[C@@H]1O"
inactive

Also need CCN(CC)CC#CCOC(=O)C(O)(c1ccccc1)C1CCCCC1 (stereo not given) , thanks.
active

Let us now turn to "CO[C@H]1C[C@H](O[C@H]2[C@H](C)[C@@H](O[C@@H]3O[C@H](C)C[C@H](N(C)C)[C@H]3O)[C@@H](C)C[C@]3(CO3)C(=O)[C@H](C)[C@@H](O)[C@@H](C)[C@@H](C)OC(=O)[C@@H]2C)O[C@@H](C)[C@@H]1O"
inactive

Another compound to check: Cc1cccc(C)c1NC(=O)C1CCCCN1C (stereo not given)
inactive

----------
Assay: A CellTox Green Cytotoxicity Assay to monitor cytotoxicity in HEK293 cells - 8 hour (AID 1224884); also: nearly all actives have a fitted effect of over 35% in size; also: potency is read from the fitted curve at half-maximal effect
Conditions: CellTox Green fluorescence; series mostly up to 76.8 µM
Excerpt: National Center for Advancing Translational Sciences [NCATS] NIH Chemical Genomics Center [NCGC] U.S. Environmental Protection Agency [EPA] National Institutes of Environmental Health Sciences [NIEHS] National Toxicology Program [NTP] Cell-based models are critical for drug discovery. […] Viable cells produce no appreciable increases in fluorescence. Therefore, the fluorescence signal produced by the binding interaction with dead cell DNA is proportional to cytotoxicity. […]
Records with an inconclusive call do not appear. The source made the active and inactive calls. The call rests on the fitted dose curve; in most records, active means well fitted activation curve with a large enough effect in the repeat runs; inconclusive means weak or mixed curves; inactive means flat fitted curve, though single readings scatter.
attribute.measured: Potency

molecule_smiles=Cc1ccc(S(=O)(=O)C(I)I)cc1 attribute_measured=Potency assay_result="49 µM (active)"
molecule_smiles=Nc1cc([N+](=O)[O-])ccc1Cl attribute_measured=Potency assay_result=inactive
molecule_smiles=Nc1ccc(Oc2cccc(Oc3ccc(N)cc3)c2)cc1 attribute_measured=Potency assay_result=inactive
molecule_smiles=Cc1ccc2n[nH]nc2c1 attribute_measured=Potency assay_result=inactive

----------
assay: qHTS assay to identify small molecule agonists of the estrogen receptor beta (ER-beta) signaling pathway - cell viability counter screen (AID 1259380); conditions: ER-beta-bla HEK293T viability, CellTiter-Glo luminescence, 16 h; series mostly up to 92.4 µM; also: nearly all actives have a fitted effect of over 30% in size
Records with an inconclusive call do not appear. The source made the active and inactive calls. Calls follow the shape of the dose curve; as a rule, active = well fitted cell-killing curve with a large enough effect in the repeat runs; inconclusive = weak or mixed curves, or effect the other way; inactive = flat fitted curve, though single readings scatter.
Mark one answer only. Choices: active, inactive

// below: answered compounds
compound=CCN(CC)c1ccc2c(c1)Oc1cc(N(CC)CC)ccc1C21OC(=O)c2ccccc21 label_value=active
compound=Nc1cccnc1N label_value=inactive
compound=N#Cc1ccc(C/C(=N/NC(=O)Nc2ccc(OC(F)(F)F)cc2)c2cccc(C(F)(F)F)c2)cc1 label_value=inactive
compound="Cc1ccc(C2OC[C@@H]3OC(c4ccc(C)cc4)O[C@H]([C@H](O)CO)[C@@H]3O2)cc1 (stereo not given in full)" label_value=inactive
compound=CN1CCN(c2ccccc2/C=C2\SCCN(c3ccc(Cl)c(Cl)c3)C2=O)CC1 label_value=active
compound=CC(=O)Nc1ccc(N=Nc2cc(C)ccc2O)cc1 label_value=inactive
compound=c1ccc(-c2ccccc2-c2ccccc2)cc1 label_value=active
compound=ClC(c1ccccc1)(c1ccccc1)c1ccccc1 label_value=inactive
compound=CC/C=C\C/C=C\C/C=C\CCCCCCCC(=O)OC label_value=active

// param item: "O=C(c1ccccc1)c1ccc(Cl)cc1" ; yields the recorded call
inactive

----------
biological target: Luciferin 4-monooxygenase (Photinus pyralis) (UniProt P08659); assay: qHTS assay to identify small molecule inhibitors of firefly luciferase (AID 1224835); also: nearly all actives have a fitted effect of over 25% in size; details: purified P. pyralis luciferase, luminescence inhibition; series mostly up to 115 µM
Sequence (P08659 whole entry, looked up): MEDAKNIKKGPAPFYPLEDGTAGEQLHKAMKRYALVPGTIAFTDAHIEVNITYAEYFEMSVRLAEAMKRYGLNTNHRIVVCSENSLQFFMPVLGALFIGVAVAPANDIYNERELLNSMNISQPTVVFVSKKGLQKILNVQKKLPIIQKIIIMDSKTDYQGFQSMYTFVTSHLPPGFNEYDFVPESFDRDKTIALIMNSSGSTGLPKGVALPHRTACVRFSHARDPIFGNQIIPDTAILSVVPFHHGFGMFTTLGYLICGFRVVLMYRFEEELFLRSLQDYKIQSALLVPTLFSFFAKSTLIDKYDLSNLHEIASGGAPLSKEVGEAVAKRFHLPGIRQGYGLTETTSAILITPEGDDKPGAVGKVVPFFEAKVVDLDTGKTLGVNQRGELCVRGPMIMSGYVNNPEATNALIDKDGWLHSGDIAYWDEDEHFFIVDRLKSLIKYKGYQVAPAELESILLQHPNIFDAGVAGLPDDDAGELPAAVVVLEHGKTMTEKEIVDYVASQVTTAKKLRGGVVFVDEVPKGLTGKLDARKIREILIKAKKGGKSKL
Results filed as inconclusive are left out. Calls of active or inactive are those of the source. Calls come from the whole dose curve; as a rule, active = well fitted inhibition curve with a large enough effect in the repeat runs; inconclusive = weak or mixed curves; inactive = flat fitted curve, though single readings scatter.
attribute.measured: outcome

Consider the worked cases shown below.
molecule_smiles=Cc1c(Cl)c(=O)oc2cc(O)ccc12 assay_result=inactive
molecule_smiles=CN1CCN(CCCN2c3ccccc3Sc3ccc(Cl)cc32)CC1 assay_result=inactive
molecule_smiles=COc1ccc2ccccc2c1 assay_result=inactive
molecule_smiles=SC1CCCCC1 assay_result=inactive
molecule_smiles=CN1CCN(c2ccccc2/C=C2\SCCN(c3ccc(Cl)c(Cl)c3)C2=O)CC1 assay_result=inactive
molecule_smiles=C=C1CC[C@H]2O[C@]2(C)CC[C@@H]2[C@@H]1CC2(C)C assay_result=inactive

Now for a further molecule.
Request the reported outcome associated with "C=COCCCC"
inactive
